Entry source: patent EP4069710B1

system: Kuramochi; assay: Antiproliferative activity, cell viability by CellTiter-Glo after 96 hours; format: cell-based; details: Kuramochi (ovarian cancer), mean ± standard deviation of triplicate measurements
metric-name: pIC50
Units for pIC50: none; it is -log10 of a concentration expressed in mol/L.

Which pIC50 reading was recorded for the compound N.N.[Cl][Pt][Cl] [Cisplatin, cis-diamine-dichloroplatinum(II)] ?
5.77

----------
system: MRC-5; assay: Antiproliferative activity on control cell line, cell viability by CellTiter-Glo after 96 hours; assay type: cell-based; details: MRC-5 (control; lung fibroblasts), mean ± standard deviation of triplicate measurements
metric-name: IC50 (µM)
Your answer is read as µM, so omit the unit and give the number.

Which IC50 reading was recorded for the compound N.N.[Cl][Pt][Cl] [Cisplatin, cis-diamine-dichloroplatinum(II)] ?
14

----------
system: OVCAR5; experiment: Antiproliferative activity, cell viability by CellTiter-Glo after 96 hours; type: cell-based; conditions: OVCAR5 (ovarian cancer), mean ± standard deviation of triplicate measurements
metric-name: pIC50
Units for pIC50: none; it is -log10 of a concentration expressed in mol/L.

Which pIC50 reading was recorded for the compound N.N.[Cl][Pt][Cl] [Cisplatin, cis-diamine-dichloroplatinum(II)] ?
5.28
